# growth inhibition listing for each entry below
Experiment: NCI Yeast Anticancer Drug Screen. Data for the mlh1 rad18 strain (AID 175)
Settings: S. cerevisiae mlh1 rad18 strain growth inhibition; at 50.0 µM (retest, dose inferred, filed as 5.0); active compounds read high
This is part of a sample that, as a whole, favours compounds with a hit. Of some 79,000 tested, about 15% had one in any assay.
Measurement label: growth inhibition (%)

INSERT INTO measurements (compound, observed_measurement) VALUES
  ('CCCCNCCC1(c2ccccc2)C(=O)Oc2ccccc21 (stereo not drawn)', 10),
  ('CN(C)c1ccc(/C=C2/Oc3ccc(Cl)cc3C2=O)cc1', 97),
  ('S=C(C#Cc1ccccc1)Nc1ccccc1', 94);

----------
Test: NCI Yeast Anticancer Drug Screen. Data for the sgs1 mgt1 strain (AID 161);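 note: 0% = growth of cultures given vehicle only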
Conditions: S. cerevisiae sgs1 mgt1 strain, at 5.0 µM (retest, dose inferred, filed as 0.5)
About 79,000 compounds went through this panel and 15% of them were active in at least one assay; those are over-represented in the sample as a whole. Calls of active or inactive are those of the source. Cut-off read from the data, not from the text of the source: active = growth inhibition above about 70%; inactive = the rest.
Labels: class 1 (active), class 0 (inactive)

INSERT INTO results (compound, label) VALUES
  ('Clc1ccccc1NN(Cc1ccccn1)c1ccccc1Cl', 'class 0'),
  ('Oc1ccc2c(c1)Cc1cc(Br)ccc1-2', 'class 0'),
  ('COc1ccccc1C1C2=C(COC2=O)OC(C)(C)Oc2cc3c(cc21)OCO3 (stereo not drawn)', 'class 0'),
  ('COc1cc(OC)c(C2CC(C)(OC)Oc3cc4c(cc32)OCO4)c(OC)c1 (stereo not drawn)', 'class 0'),
  ('Oc1cccc(Oc2cccc(Oc3ccccc3)c2)c1', 'class 0'),
  ('CC(C)N=Cc1cc(I)cc(I)c1O.CC(C)N=Cc1cc(I)cc(I)c1O.[Co]', 'class 1'),
  ('CCN1C(Cl)=NS(=O)(=O)c2ccccc21', 'class 0'),
  ('COC1=C(/C(=N/Nc2ccc([N+](=O)[O-])cc2[N+](=O)[O-])c2ccccc2)COC1=O', 'class 0'),
  ('COc1ccccc1N=Nc1c(N)nc(N)[nH]c1=O', 'class 0'),
  ('CC1CCCN(c2cc(N(C)C)c([N+](=O)[O-])cc2F)C1 (stereo not drawn)', 'class 0'),
  ('CCCCCCCCCc1ccc(O)c(Cl)c1', 'class 0'),
  ('C[n+]1c(/C=C/c2ccc(Cl)cc2)sc2ccccc21', 'class 0'),
  ('O=[N+]([O-])c1ccc(-c2ccccc2Cl)c([N+](=O)[O-])c1', 'class 0'),
  ('CC1=CC(O)(c2ccc(-c3ccccc3Cl)cc2)OC1=O (stereo not drawn)', 'class 0'),
  ('COc1cc(C2CC(C)(OC)Oc3cc4c(cc32)OCO4)cc(OC)c1O (stereo not drawn)', 'class 0'),
  ('CCOC(=O)C(C#N)NC(C)=O (stereo not drawn)', 'class 0'),
  ('COc1ccc(/C=C2\CCC/C(=C\c3ccc(OC)cc3)C2=O)cc1', 'class 0'),
  ('CC(=O)Oc1ccc(C)cc1C(C)(C)C', 'class 0'),
  ('O=C1SC(c2ccccc2)=S=C1c1ccccc1', 'class 0'),
  ('O/N=C(/C[N+]12CN3CN(CN(C3)C1)C2)c1ccc(I)cc1', 'class 0'),
  ('Clc1ccc2nc(CCSCCc3nc4ccc(Cl)cc4[nH]3)[nH]c2c1', 'class 0'),
  ('CCOc1c(N=Nc2ccccc2Cl)c(C)nn1C(=S)S', 'class 0'),
  ('O=C1c2ccccc2C(=O)C2OC12 (stereo not drawn)', 'class 0'),
  ('CN(C)CCC(=O)[C@@]1(O)CC[C@H]2[C@@H]3CC=C4C[C@@H](O)CC[C@]4(C)[C@H]3CC[C@@]21C', 'class 0'),
  ('Cc1ccc2cc3ccccc3c(-c3ccccc3)c2c1', 'class 0'),
  ('CCc1cccc(C(C)(C)C)c1NC(=S)/N=C/C(C(=O)c1ccccc1)=C(\O)c1ccccc1', 'class 0'),
  ('CCCCCCC1CC(=O)C1(Cl)Cl (stereo not drawn)', 'class 0'),
  ('CC1(c2ccc3ccccc3c2)C(C#N)(C#N)C1(C#N)C#N', 'class 1'),
  ('c1cc(SSc2ccncc2)ccn1', 'class 0'),
  ('CCOC(=O)c1nnc2cc(-c3ccccc3)nn2c1-c1ccccc1', 'class 0'),
  ('Cc1sc(Cc2ccccc2)nc1-c1ccc(N=Cc2ccc(N(CCOS(C)(=O)=O)CCOS(C)(=O)=O)cc2)cc1', 'class 0'),
  ('CC(=O)N1C(C(=O)NNc2ccccc2)CSC1c1ccccc1 (stereo not drawn)', 'class 1'),
  ('CCCCCCCCN(CCCCCCCC)CC(O)c1ccc2cc3c(nc2c1)CCCC3 (stereo not drawn)', 'class 0'),
  ('CC(=O)N(C1=C(Cl)C(=O)c2ccccc2C1=O)c1ccc([N+](=O)[O-])cc1', 'class 1'),
  ('C/C=C/C=N/N(c1nnc(-c2ccccc2)c(-c2ccccc2)n1)S(=O)(=O)c1ccc(C)cc1', 'class 0'),
  ('CCOC(=O)C(=C=C=C(c1ccccc1)c1ccccc1)C(=O)OCC', 'class 0'),
  ('O=S(=O)(NC(=S)Nc1ccccc1)c1ccc(Br)cc1', 'class 0'),
  ('CCN(CC)CCC(=O)OC1C(C)=CC(C)C(=O)CC(C(C)CC2CCC(O)C(OC)C2)OC(=O)C2CCCCN2C(=O)C(=O)[C@@]2(O)OC(CCC2C)CC(OC)\C(C)=C/C=C/C=C/C(C)CC(C)C(=O)C1OC (stereo partly drawn)', 'class 1');

----------
Test: NCI Yeast Anticancer Drug Screen. Data for the rad50 strain (AID 155);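 note: 0% = growth of vehicle-only cultures of the same strain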
Conditions: S. cerevisiae rad50 strain growth inhibition; at 5.0 µM (retest, dose inferred, filed as 0.5); active compounds read high
The panel holds about 79,000 compounds, 15% with a hit somewhere; the sample as a whole holds those more often. Where a SMILES comes first, the peptide text is derived from it. The star is where a group is joined. Trt = c1ccc(C(c2ccccc2)(c2ccccc2)*)cc1; Cbz = O=C(OCc1ccccc1)*
Measurement label: growth inhibition (%)

INSERT INTO assay_data (molecule, observed_measurement) VALUES
  ('O=C1CCS(=O)(=O)c2ccccc21', 21),
  ('O=C(CC(=O)c1ccc(O)cc1)c1ccccc1', -1),
  ('CC(C)(C)c1ccc(-n2c3nc(=O)n(-c4ccccc4C(F)(F)F)c(=O)c-3cc3ccccc32)cc1', 13),
  ('O=C(/C=C\c1ccccc1)/C=C/c1ccccc1', 4),
  ('NNC(=O)C(=O)N/N=C(/CCC(=O)NCCc1ccccc1)CC(=O)c1ccccc1', 1),
  ('CCc1cccc(CC)c1NC(=O)CS', -151),
  ('O=c1cc(-c2ccccc2)oc(-c2ccccc2)c1', -152),
  ('CCCCCCCCCCN1Cc2ccccc2C1', 77),
  ('O=C(Nc1ccc(Cl)cc1)Nc1cc(Cl)ccc1O', -2),
  ('CC1CN(CC2CCCCCCCCCCC2=O)CC(C)O1 (stereo not drawn)', 59),
  ('CCOC(=O)C(=C=C=C(c1ccccc1)c1ccccc1)C(=O)OCC', -3),
  ('Cc1[nH]nc(C(F)(F)F)c1N=NN1CCOCC1', 62),
  ('CSC(=Nc1ccccc1)/N=C(\SCc1ccccc1)N(C)C', 45),
  ('O=CC(O)CN1CCCC1 (stereo not drawn)', -2),
  ('C1Cc2c3c4c(c5c2C(C1)CCC5)CCCC4CCC3', -5),
  ('CCOc1ccccc1C(=O)Oc1cccc(C)c1', -7),
  ('O=CNC(CCCC(=O)O)Cc1cc2ccccc2c2ccccc12 (stereo not drawn)', 5),
  ('CCOC(=O)CCC(NC(=O)C(CSC(c1ccccc1)(c1ccccc1)c1ccccc1)NC(=O)OCc1ccccc1)C(=O)NC(CCC(=O)OCC)C(=O)NC(CCC(=O)OCC)C(=O)NC(CCC(=O)OCC)C(=O)NC(CSC(c1ccccc1)(c1ccccc1)c1ccccc1)C(=O)OC (stereo not drawn) (Cbz-C(Trt)E(OEt)E(OEt)E(OEt)E(OEt)C(Trt)-OMe; configuration not given here)', 1),
  ('NC(=S)c1cccc(OCCCOc2ccccc2)c1', 2),
  ('O=C(O)C(O)Cc1ccc(O)cc1 (stereo not drawn)', -150),
  ('N#CC(Cl)CS(=O)(=O)c1ccccc1 (stereo not drawn)', 81),
  ('Nc1nc(N)c(C(=O)SCc2ccccc2)nc1Cl', 6),
  ('CCN1/C(=C/C(C)=C/c2sc3ccccc3[n+]2CC)Sc2ccccc21', 98),
  ('CCCCCCC(OCCC)OCCC', -4),
  ('COC(=O)[C@H]1[C@@H](C(C)C)O[C@@H](C(C)C)O[C@H]1C(F)(F)F', -1),
  ('CC/C(C)=C1\CCC(CN2CCOCC2)C1=O (stereo not drawn)', 24),
  ('CC1(C)OC2C(COC(c3ccccc3)(c3ccccc3)c3ccccc3)OC(n3cnc4c(N)ncnc43)C2O1 (stereo not drawn)', -1),
  ('CCCCCCN(CCCCCC)CCCC(O)c1cccc2ccccc12 (stereo not drawn)', -2),
  ('COc1nc(NC2OC(CO)C(O)C(O)C2O)c(Cl)c(=O)[nH]1 (stereo not drawn)', 1),
  ('Cc1ccc(NC(=S)SCc2ccc(Cl)cc2)cc1Br', 48),
  ('Cc1cc(N2C(=O)CCSC2=S)c([N+](=O)[O-])cc1C', 32),
  ('O=c1oc2c/c(=C\c3ccccc3)c(=O)c3cccc1c3-2', -6),
  ('CCCCCCCC(=O)N1CCCCC1CC (stereo not drawn)', -142);
